# System: P. falciparum stage V female gametocytes (female gamete formation)
# method.description: P. falciparum dual gamete formation assay (Pf DGFA), female readout (Pfs25 expression), 48 h carry-over format
# Format: cell-based, Plasmodium falciparum NF54
# condition.set: Plasmodium falciparum; primary screen, 2 uM, 48 h incubation, single replicate
assay.metric: inhibition at 2 µM

# annotated cases, reported inhibition at 2 µM shown
# compound, tested.system, inhibition at 2 µM
measured = [
    ("O=S(=O)(NCC1(O)CCOc2ccccc21)c1cccs1 (centres unmarked) [DDD01035879]", "P. falciparum stage V female gametocytes (female gamete formation)", "< 30%"),
    ("O=S(=O)(NCC1(O)CCOc2ccccc21)c1ccccc1F (centres unmarked) [DDD01028073]", "P. falciparum stage V female gametocytes (female gamete formation)", "< 30%"),
    ("CCc1ccc(C2c3nc[nH]c3CCN2Cc2nccn2CC)nc1 (centres unmarked) [DDD01254473]", "P. falciparum stage V female gametocytes (female gamete formation)", "30.5%"),
    ("COc1ccc(CN2CCc3c(CNC(=O)CC#N)nn(C)c3C2)cc1.O=C(O)C(F)(F)F.O=C(O)C(F)(F)F [DDD01030619]", "P. falciparum stage V female gametocytes (female gamete formation)", "< 30%"),
    ("O=C(CN1CC(c2nc(C3CC3)no2)C1)N1CCOCC1.O=C(O)C(=O)O [DDD01027902]", "P. falciparum stage V female gametocytes (female gamete formation)", "< 30%"),
]

Quick one: inhibition at 2 µM of O=S(=O)(NCC1(O)CCOc2ccccc21)c1ccc(Br)s1 (centres unmarked) [DDD01035881] ?
< 30%

Quick one: inhibition at 2 µM of O=C(C1CC2(CCNCC2)CN1)N1CCN(c2cccc(Cl)c2Cl)CC1 (centres unmarked) [DDD01243908] ?
< 30%

Quick one: inhibition at 2 µM of COc1ccc(CNC(Cc2ccsc2)c2ccc(C)cn2)c(OC)c1 (centres unmarked) [DDD01058868] ?
30.8%

Quick one: inhibition at 2 µM of CC(c1ccco1)N(C(=O)CNc1ccc(C#N)cc1)C1CC1 (centres unmarked) [DDD01062645] ?
< 30%

Quick one: inhibition at 2 µM of O=S(=O)(NCC1(O)CCOc2ccccc21)c1ccc(Cl)s1 (centres unmarked) [DDD01028075] ?
< 30%

Quick one: inhibition at 2 µM of Cc1ccc(-c2cc(C(=O)NCCC3=CCCCC3)[nH]n2)o1 [DDD01255968] ?
< 30%

Quick one: inhibition at 2 µM of CN1CCC(NCC(O)c2cccc(OCc3ccccc3)c2)CC1 (centres unmarked) [DDD01079164] ?
< 30%

Quick one: inhibition at 2 µM of COc1ccc(NC(=O)Cn2nc(C)c(C(C)=O)c2C)cc1 [DDD01027600] ?
< 30%

Quick one: inhibition at 2 µM of CC(c1cccs1)N(C)Cc1cnc(-c2ccccn2)nc1 (centres unmarked) [DDD01246628] ?
41.9%
